Listed binders paired with reported pIC50
assayed target: DR4 (DRB1*0401) molecules purified from the homozygous EBV-transformed human B lymphoblastoid cell line … (human, UniProt P01903 26-254)
pIC50: −log10 of the molar value.

# annotated cases, reported pIC50 shown
QHLDFISIMTYDFHGA [HC gp-39 peptide 30 (residues 196-211)]
> 6.00
YLKDRQLAGAMVWALD [HC gp-39 peptide 54 (residues 340-355)]
> 6.00
YKLVCYYTSWSQYREG [HC gp-39 peptide 1 (residues 22-37)]
> 6.00
TFIKSVPPFLRTHGFD [HC gp-39 peptide 17 (residues 118-133)]
5.00 to 6.00
SCFPDALDRFLCTHII [HC gp-39 peptide 4 (residues 40-55)]
4.00 to 5.00

Recorded pIC50 (binder LDRFLCTHIIYSFANI [HC gp-39 peptide 5 (residues 46-61)] ): > 6.00

Summary for this binder, DYAVGYMLRLGAPASK [HC gp-39 peptide 37 (residues 238-253)] : pIC50 is > 6.00
